# target.desc: SST2 (Homo sapiens)
# Sequence (P30874 whole entry): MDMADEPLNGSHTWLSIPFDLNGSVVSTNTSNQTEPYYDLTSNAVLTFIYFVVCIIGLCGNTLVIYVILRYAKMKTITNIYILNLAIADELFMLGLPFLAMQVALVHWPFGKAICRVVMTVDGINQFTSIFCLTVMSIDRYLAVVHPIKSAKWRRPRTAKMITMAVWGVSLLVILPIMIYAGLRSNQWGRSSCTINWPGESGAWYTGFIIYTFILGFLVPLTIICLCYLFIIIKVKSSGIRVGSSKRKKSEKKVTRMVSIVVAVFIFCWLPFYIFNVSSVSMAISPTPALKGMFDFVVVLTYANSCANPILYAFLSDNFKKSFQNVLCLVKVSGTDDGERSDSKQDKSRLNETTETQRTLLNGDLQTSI
# test.protocol: Hit Hunter cAMP XS+ assay, SST2 activation via Gi (reduction of forskolin-stimulated cAMP)
# Assay type: cell-based
# setup.conditions: reduction of forskolin-stimulated cAMP; 4-parameter logistic fit; read-out: SST2 pEC50 (converted)
*1 amine or outer side, *2 acyl side, *3 side chain or, on linkers, in order; H or OH if unused. Where a SMILES comes first, the peptide text is derived from it. Side-chain parts run from the residue outwards. [ ]: non-standard residue; d: D form. The star is where a group is joined. Ala(piperidin-4-yl) = O=C([C@H](CC1CCN([*:3])CC1)N[*:1])[*:2]; Ala(piperazin-1-yl) = N[C@@H](CN1CCNCC1)C(=O)O; Ethylenediamine = C(CN[*:2])N[*:1]; Hyp = O=C(O)[C@@H]1C[C@@H](O)CN1; NMeF = CN[C@@H](Cc1ccccc1)C(=O)O; hPhe = N[C@@H](CCc1ccccc1)C(=O)O; Cyclohexylmethyl = C1CCC(C*)CC1; Tic = O=C(O)[C@@H]1Cc2ccccc2CN1; Phg = N[C@H](C(=O)O)c1ccccc1; CO = O=C([*:1])[*:2]; Bn = c1ccc(C*)cc1
measure: EC50 (nM)
Give the value, in units of nM, as a plain number.

Problem: For the compound NCCNC(=O)O[C@@H]1C[C@H]2C(=O)N[C@@H](c3ccccc3)C(=O)N[C@H](Cc3c[nH]c4ccccc34)C(=O)N[C@@H](CN3CCNCC3)C(=O)N[C@@H](Cc3ccc(OCC4CCCCC4)cc3)C(=O)N[C@@H](Cc3ccccc3)C(=O)N2C1 [Example 27] (cyclo(F[Hyp]([CO-Ethylenediamine])[Phg][dW][Ala(piperazin-1-yl)]Y(Cyclohexylmethyl))) , give its reported EC50.
Result: 398

Problem: For the compound CN1C(=O)[C@H](Cc2ccc(OCc3ccccc3)cc2)NC(=O)[C@H](CN2CCNCC2)NC(=O)[C@@H](Cc2c[nH]c3ccccc23)NC(=O)[C@H](CCc2ccccc2)NC(=O)[C@@H]2C[C@@H](OC(=O)NCCN)CN2C(=O)[C@@H]1Cc1ccccc1 [Example 57] (cyclo([Hyp]([CO-Ethylenediamine])[hPhe][dW][Ala(piperazin-1-yl)]Y(Bn)[NMeF])) , give its reported EC50.
Result: 200

Problem: For the compound NCCNC(=O)O[C@@H]1C[C@H]2C(=O)N[C@@H](CCc3ccccc3)C(=O)N[C@H](Cc3c[nH]c4ccccc34)C(=O)N[C@@H](CC3CCNCC3)C(=O)N[C@@H](Cc3ccc(OCC4CCCCC4)cc3)C(=O)N3Cc4ccccc4C[C@H]3C(=O)N2C1 [Example 44] (cyclo([Hyp]([CO-Ethylenediamine])[hPhe][dW][Ala(piperidin-4-yl)]Y(Cyclohexylmethyl)[Tic])) , give its reported EC50.
Result: 794

---

# target.desc: UniProt:P35346
# Sequence (P35346 whole entry): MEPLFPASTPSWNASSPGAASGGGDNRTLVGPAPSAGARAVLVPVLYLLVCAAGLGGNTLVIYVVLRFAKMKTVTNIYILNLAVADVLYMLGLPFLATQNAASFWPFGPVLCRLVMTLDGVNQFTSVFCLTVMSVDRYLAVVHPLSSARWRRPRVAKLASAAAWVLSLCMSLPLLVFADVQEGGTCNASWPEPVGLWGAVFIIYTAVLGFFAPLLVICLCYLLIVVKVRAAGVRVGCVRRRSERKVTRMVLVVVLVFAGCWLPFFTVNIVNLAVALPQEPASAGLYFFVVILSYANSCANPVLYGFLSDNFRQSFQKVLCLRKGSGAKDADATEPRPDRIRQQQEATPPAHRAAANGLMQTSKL
# test.protocol: Hit Hunter cAMP XS+ assay, SST5 activation via Gi (reduction of forskolin-stimulated cAMP)
# Type: cell-based
# setup.conditions: read-out: SST5 (EMax)
*1 amine or outer side, *2 acyl side, *3 side chain or, on linkers, in order; H or OH if unused. Where a SMILES comes first, the peptide text is derived from it. Side-chain parts run from the residue outwards. [ ]: non-standard residue; d: D form. The star is where a group is joined. Ala(piperidin-4-yl) = O=C([C@H](CC1CCN([*:3])CC1)N[*:1])[*:2]; X2 = O=C([C@@H]1C[C@@H](Oc2ccncc2)CN1[*:1])[*:2]; Ala(piperazin-1-yl) = N[C@@H](CN1CCNCC1)C(=O)O; Phe(4-Cl) = N[C@@H](Cc1ccc(Cl)cc1)C(=O)O; Morpholine(3S-CO) = O=C(O)[C@@H]1COCCN1; Ethylenediamine = C(CN[*:2])N[*:1]; d(hPhe) = N[C@H](CCc1ccccc1)C(=O)O; Hyp = O=C(O)[C@@H]1C[C@@H](O)CN1; hPhe = N[C@@H](CCc1ccccc1)C(=O)O; 3Pal = N[C@@H](Cc1cccnc1)C(=O)O; Cyclohexylmethyl = C1CCC(C*)CC1; Tic = O=C(O)[C@@H]1Cc2ccccc2CN1; Phg = N[C@H](C(=O)O)c1ccccc1; CO = O=C([*:1])[*:2]; Bn = c1ccc(C*)cc1
measure: Emax (%)
Give the value, in units of %, as a plain number.

Problem: For the compound NCCNC(=O)O[C@@H]1C[C@H]2C(=O)N[C@@H](CCc3ccccc3)C(=O)N[C@H](Cc3c[nH]c4ccccc34)C(=O)N[C@@H](CC3CCNCC3)C(=O)N[C@@H](Cc3ccc(OCC4CCCCC4)cc3)C(=O)N[C@@H](Cc3cccnc3)C(=O)N2C1 [Example 54] (cyclo([3Pal][Hyp]([CO-Ethylenediamine])[hPhe][dW][Ala(piperidin-4-yl)]Y(Cyclohexylmethyl))) , give its reported Emax.
Result: 104

Problem: For the compound NCCNC(=O)O[C@@H]1C[C@H]2C(=O)N[C@@H](Cc3ccccc3)C(=O)N[C@H](Cc3c[nH]c4ccccc34)C(=O)N[C@@H](CC3CCNCC3)C(=O)N[C@@H](Cc3ccc(OCc4ccccc4)cc3)C(=O)N[C@@H](Cc3ccccc3)C(=O)N2C1 [Example 2] (cyclo(F[Hyp]([CO-Ethylenediamine])F[dW][Ala(piperidin-4-yl)]Y(Bn))) , give its reported Emax.
Result: 105

Problem: For the compound NCCNC(=O)O[C@@H]1C[C@H]2C(=O)N[C@H](CCc3ccccc3)C(=O)N[C@@H](Cc3c[nH]c4ccccc34)C(=O)N[C@@H](CN3CCNCC3)C(=O)N[C@@H](Cc3ccc(OCc4ccccc4)cc3)C(=O)N3Cc4ccccc4C[C@H]3C(=O)N2C1 [Example 35] (cyclo([Hyp]([CO-Ethylenediamine])[d(hPhe)]W[Ala(piperazin-1-yl)]Y(Bn)[Tic])) , give its reported Emax.
Result: 107

Problem: For the compound NCCNC(=O)O[C@@H]1C[C@H]2C(=O)N[C@H](CCc3ccccc3)C(=O)N[C@H](Cc3c[nH]c4ccccc34)C(=O)N[C@@H](CN3CCNCC3)C(=O)N[C@@H](Cc3ccc(OCc4ccccc4)cc3)C(=O)N3Cc4ccccc4C[C@H]3C(=O)N2C1 [Example 25] (cyclo([Hyp]([CO-Ethylenediamine])[d(hPhe)][dW][Ala(piperazin-1-yl)]Y(Bn)[Tic])) , give its reported Emax.
Result: 102

Problem: For the compound O=C1N[C@@H](Cc2ccc(OCc3ccccc3)cc2)C(=O)N2Cc3ccccc3C[C@H]2C(=O)N2CCOC[C@H]2C(=O)N[C@@H](CCc2ccccc2)C(=O)N[C@H](Cc2c[nH]c3ccccc23)C(=O)N[C@H]1CC1CCNCC1 [Example 45] (cyclo([Tic][Morpholine(3S-CO)][hPhe][dW][Ala(piperidin-4-yl)]Y(Bn))) , give its reported Emax.
Result: 100

Problem: For the compound NCCNC(=O)O[C@@H]1C[C@H]2C(=O)N[C@H](CCc3ccccc3)C(=O)N[C@H](Cc3c[nH]c4ccccc34)C(=O)N[C@@H](CN3CCNCC3)C(=O)N[C@@H](Cc3ccc(OCc4ccccc4)cc3)C(=O)N[C@@H](Cc3ccc(Cl)cc3)C(=O)N2C1 [Example 30] (cyclo([Hyp]([CO-Ethylenediamine])[d(hPhe)][dW][Ala(piperazin-1-yl)]Y(Bn)[Phe(4-Cl)])) , give its reported Emax.
Result: 101

Problem: For the compound COc1ccc(C[C@@H]2NC(=O)[C@H](Cc3ccc(OCc4ccccc4)cc3)NC(=O)[C@H](CC3CCNCC3)NC(=O)[C@@H](Cc3c[nH]c4ccccc34)NC(=O)[C@H](CCc3ccccc3)NC(=O)[C@@H]3C[C@@H](OC(=O)NCCN)CN3C2=O)cc1 [Example 43] (cyclo([Hyp]([CO-Ethylenediamine])[hPhe][dW][Ala(piperidin-4-yl)]Y(Bn)Y(Me))) , give its reported Emax.
Result: 107

Problem: For the compound NCCNC(=O)O[C@@H]1C[C@H]2C(=O)N[C@@H](CCc3ccccc3)C(=O)N[C@H](Cc3c[nH]c4ccccc34)C(=O)N[C@@H](CC3CCNCC3)C(=O)N[C@@H](Cc3ccc(OCc4ccccc4)cc3)C(=O)N[C@@H](Cc3ccc(Cl)cc3)C(=O)N2C1 [Example 42] (cyclo([Hyp]([CO-Ethylenediamine])[hPhe][dW][Ala(piperidin-4-yl)]Y(Bn)[Phe(4-Cl)])) , give its reported Emax.
Result: 104

Problem: For the compound NCCNC(=O)O[C@@H]1C[C@H]2C(=O)N[C@@H](CCc3ccccc3)C(=O)N[C@@H](Cc3c[nH]c4ccccc34)C(=O)N[C@@H](CN3CCNCC3)C(=O)N[C@@H](Cc3ccc(OCc4ccccc4)cc3)C(=O)N[C@@H](Cc3cccnc3)C(=O)N2C1 [Example 34] (cyclo([3Pal][Hyp]([CO-Ethylenediamine])[hPhe]W[Ala(piperazin-1-yl)]Y(Bn))) , give its reported Emax.
Result: 102

Problem: For the compound NCCNC(=O)O[C@@H]1C[C@H]2C(=O)N[C@@H](c3ccccc3)C(=O)N[C@H](Cc3c[nH]c4ccccc34)C(=O)N[C@@H](CN3CCNCC3)C(=O)N[C@@H](Cc3ccc(OCC4CCCCC4)cc3)C(=O)N[C@@H](Cc3ccccc3)C(=O)N2C1 [Example 27] (cyclo(F[Hyp]([CO-Ethylenediamine])[Phg][dW][Ala(piperazin-1-yl)]Y(Cyclohexylmethyl))) , give its reported Emax.
Result: 99.4

Problem: For the compound O=C1N[C@@H](Cc2cccnc2)C(=O)N2C[C@H](Oc3ccncc3)C[C@H]2C(=O)N[C@@H](CCc2ccccc2)C(=O)N[C@H](Cc2c[nH]c3ccccc23)C(=O)N[C@@H](CC2CCNCC2)C(=O)N[C@H]1Cc1ccc(OCc2ccccc2)cc1 [Example 22] (cyclo([3Pal][X2][hPhe][dW][Ala(piperidin-4-yl)]Y(Bn))) , give its reported Emax.
Result: 102
